target: Serine protease HTRA2, mitochondrial (Homo sapiens, UniProt O43464); experiment: Inhibition of recombinant human HTRA2 using H2-OPT as substrate assessed as increase in fluorescence and measured for 2 hrs by fluorescent plate reader analysis
Sequence (O43464 whole entry): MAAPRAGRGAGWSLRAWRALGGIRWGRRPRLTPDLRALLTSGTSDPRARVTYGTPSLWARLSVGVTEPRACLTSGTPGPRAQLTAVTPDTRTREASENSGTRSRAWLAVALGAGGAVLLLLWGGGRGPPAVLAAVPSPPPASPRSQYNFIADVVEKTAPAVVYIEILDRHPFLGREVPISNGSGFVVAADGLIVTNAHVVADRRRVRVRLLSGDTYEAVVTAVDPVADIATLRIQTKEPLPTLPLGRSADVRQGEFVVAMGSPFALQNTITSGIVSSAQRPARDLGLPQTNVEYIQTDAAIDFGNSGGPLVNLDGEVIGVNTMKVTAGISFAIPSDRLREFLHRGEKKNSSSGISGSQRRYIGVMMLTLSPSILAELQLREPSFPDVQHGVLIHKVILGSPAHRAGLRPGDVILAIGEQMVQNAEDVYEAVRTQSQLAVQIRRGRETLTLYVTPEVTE
pIC50: −log10 of the molar value.

ENTRY SMILES	pIC50
CC(C)C[C@H](NC(=O)CCCCCNC(=O)c1ccc(C(=O)O)c(-c2c3ccc(=O)cc-3oc3cc(O)ccc23)c1)C(=O)N[C@@H](Cc1ccccc1)C(=O)N[C@@H](CC(C)(C)C)C(=O)N[C@@H](C(C)C)P(=O)(Oc1ccccc1)Oc1ccccc1	5.09
CC(C)[C@H](NC(=O)[C@H](CC1CC1)NC(=O)[C@H](CCCCN)NC(=O)[C@H](Cc1ccccc1)NC(=O)CCCCCNC(=O)c1ccc(C(=O)O)c(-c2c3ccc(=O)cc-3oc3cc(O)ccc23)c1)P(=O)(Oc1ccccc1)Oc1ccccc1	5.08
CC(C)C[C@H](NC(=O)[C@H](CCCCN)NC(=O)[C@H](Cc1ccc2ccccc2c1)NC(=O)CCCCCNC(=O)c1ccc(C(=O)O)c(-c2c3ccc(=O)cc-3oc3cc(O)ccc23)c1)C(=O)N[C@@H](C(C)C)P(=O)(Oc1ccccc1)Oc1ccccc1	4.92
CC(C)C[C@H](NC(=O)CCCCCNC(=O)c1ccc(C(=O)O)c(-c2c3ccc(=O)cc-3oc3cc(O)ccc23)c1)C(=O)N[C@@H](Cc1ccccc1)C(=O)N[C@@H](CC(C)C)C(=O)N[C@@H](C(C)C)P(=O)(Oc1ccccc1)Oc1ccccc1	5.11
